FYI, the data here is from patent US20170129940A1.

Tested On: hCMV gH + gL + UL128 + UL130 + UL131A (co-expressed in HEK293T cells) (human cytomegalovirus), P12824
Method Summary: competitor: 4N10-biotin; cell staining
Applied Conditions: remark: other sources report otherwise
Measurement Kind: Inhibition of binding (%)
Respond with the bare value in %.

[in] Returns the measured Inhibition of binding (%) for the input binder. Input: 2C12 (antibody, V domains shown) VH: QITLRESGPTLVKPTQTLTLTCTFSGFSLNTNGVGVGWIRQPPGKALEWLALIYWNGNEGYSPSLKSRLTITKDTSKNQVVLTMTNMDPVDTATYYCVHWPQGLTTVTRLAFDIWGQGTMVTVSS VL: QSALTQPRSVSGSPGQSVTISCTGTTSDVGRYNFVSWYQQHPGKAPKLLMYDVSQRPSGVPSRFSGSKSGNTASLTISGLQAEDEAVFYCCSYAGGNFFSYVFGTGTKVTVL
[out] 0
